Hello, the source for this data is ChEMBL document CHEMBL1201862, in case you need it.

- Tested on: NCI-H226
- Assay Overview: NCI tumour cell line growth inhibition, 48 h
Calls of active or inactive are those of the source. Rule as the data show it: active = GI50 up to about 1.1 µM and inactive = higher.
Attribute Measured: GI50

>>> print(df.to_string())
                                    compound  attribute_measured               result
 0  CC12Nc3c(Cl)cc(Cl)cc3N1C(=O)c1ccccc12 (configuration not stated)                GI50   68.7 µM (inactive)
 1  CC1=C(C(=O)Nc2ccccc2C)C(c2ccc(Cl)c(Cl)c2)C(C(=O)Nc2ccccc2C)=C(C)N1                GI50   15.2 µM (inactive)
 2  Cc1cc(N(CCC#N)CCC#N)ccc1/N=N/c1cc(Cl)ccc1Cl                GI50   6.38 µM (inactive)
 3  CC(=O)Nc1ccc(C2C(C(=O)Nc3ccccc3C)=C(C)NC(C)=C2C(=O)Nc2ccccc2C)cc1                GI50  > 100 µM (inactive)
 4  CC(C)(C)c1cc(C(P(=O)(O)O)P(=O)(O)O)cc(C(C)(C)C)c1O                GI50  > 100 µM (inactive)
 5  Cc1ccc2c(c1)CC1(Cc3c(C)cccc3C1=O)C2=O (configuration not stated)                GI50  > 100 µM (inactive)
 6  Cc1c2n(c(=O)[nH]c1=O)C1OC(CO)C(O2)C1O (configuration not stated)                GI50  > 100 µM (inactive)
 7                             C=C(C)OCOCCOC                GI50  > 100 µM (inactive)
 8           CC(C)/C(=N\[N+](C)(C)C)c1ccccc1                GI50  > 100 µM (inactive)
 9  CC(ON1[C@](C)(c2ccccc2)CC[C@@]1(C)c1ccccc1)c1ccccc1 (some centres not stated)                GI50   40.9 µM (inactive)
10        O=C1OC(c2ccccc2Br)=N/C1=C/c1ccccc1                GI50   18.8 µM (inactive)
11  O=C(CCCCCCCCC(=O)N1C(=O)CC(=O)N(c2ccc(Cl)cc2)C1=S)N1C(=O)CC(=O)N(c2ccc(Cl)cc2)C1=S                GI50  > 100 µM (inactive)
12  CCOC(=O)/C=C1\Oc2ccccc2C1(C)O (configuration not stated)                GI50  > 100 µM (inactive)
13  CC(=O)N1C2=CCCC2(C)c2ccccc21 (configuration not stated)                GI50  > 100 µM (inactive)
14   NC(=O)c1ccccc1NC(=O)C(=O)Nc1n[nH]c(N)n1                GI50  > 100 µM (inactive)
15  COC1OC(C)C(O)CC1OS(=O)(=O)c1ccc(C)cc1 (configuration not stated)                GI50  > 100 µM (inactive)
16  COc1ccc2cc(CN3CCC(C4CCN(Cc5ccc6cc(OC)ccc6c5)CC4)CC3)ccc2c1                GI50   16.6 µM (inactive)
17  CC1=NN(C(=O)CC(=O)Nc2cccc(C)c2)C(=O)C1/N=N/c1ccc(S(=O)(=O)CCOS(=O)(=O)O)cc1 (configuration not stated)                GI50    0.718 µM (active)
18             CCCn1cnc2c(SCC(=O)O)nc(N)nc21                GI50  > 100 µM (inactive)
19  O=S(=O)(N/C(=N\O)Nc1ccc(Cl)cc1)c1cc2ccccc2s1                GI50   15.4 µM (inactive)
20  C=C(Cl)C(Br)(CCl)CCC(Br)C(C)(C)Cl (configuration not stated)                GI50   5.32 µM (inactive)
21  CCCCCCOP(=O)(OCCCCCC)C(NC(=O)OCC)(C(F)(F)F)C(F)(F)F                GI50   24.9 µM (inactive)
22  CCn1c(SCC(=O)N/N=C/c2ccccc2)nc2ccccc2c1=O                GI50   10.8 µM (inactive)
23  Cc1cccc(NC(=O)C(=O)C2C(=O)NC(=O)NC2=O)c1C                GI50  > 100 µM (inactive)
24  CNC(=O)[C@H](Cc1ccccc1)NC(=O)N(CCC#N)CCN(C(=O)N[C@@H](Cc1ccccc1)C(=O)OC)c1ccccc1                GI50  > 100 µM (inactive)
25  CC(=O)O[C@]12CCCCC1C1(O)C(O)CCCC[C@H]12 (some centres not stated)                GI50  > 100 µM (inactive)
26  C=CCCC(C)N(C(=O)OC(C)(C)C)S(=O)(=O)c1ccc(C)cc1 (configuration not stated)                GI50  > 100 µM (inactive)
27  CN(C)CCC1(C2=CCCC2)CC/C(=C\c2ccccc2)C1=O (configuration not stated)                GI50   16.9 µM (inactive)
28  CN(C)/C=N/CC(O)c1ccccc1 (configuration not stated)                GI50  > 100 µM (inactive)
29  COC(=O)CCc1cc(O)c2c(c1)C(C(=O)OC)C(c1ccc(O)c(O)c1)O2 (configuration not stated)                GI50   26.4 µM (inactive)
30  Cc1nc2ccc(C(F)(F)F)cc2nc1Nc1ccc(Cl)c(Cl)c1                GI50   16.1 µM (inactive)
31   COc1cccc(/C=C/C(=O)c2sc(C(N)=S)nc2C)c1O                GI50  > 100 µM (inactive)
32  N#CC12C(=O)N3C(=NC(c4ccccc4)NC3c3ccccc3)C1(C#N)C(c1ccccc1)NC1=C2CCC1 (configuration not stated)                GI50  > 100 µM (inactive)
33  O=C1[C@@H]2[C@@H](CN3CN(c4ccccc4)N=C(c4ccccc4)[C@@]23c2ccccc2)C(=O)N1c1ccccc1                GI50    0.977 µM (active)
34              COc1cc(/N=C\N(C)C)c2ncccc2c1                GI50   49.4 µM (inactive)
35  COc1ccc(NC2Oc3cc4c(cc3C(c3cc(OC)c(O)c(OC)c3)C2C)OCO4)cc1 (configuration not stated)                GI50   38.3 µM (inactive)
36  C[C@]1(CO)[C@H]2CC[C@@]34C=C[C@@](CO)(CC[C@H]3[C@]2(C)CC[C@H]1O)C4                GI50  > 100 µM (inactive)
37        Cc1nc2ccccc2c(-n2cccn2)c1CCn1cccn1                GI50  > 100 µM (inactive)
38  CC/C=C/C[C@H](O[Si](C)(C)C(C)(C)C)[C@H]1C[C@H]2O[C@H]([C@@H](O)C#C[Si](C)(C)C)C[C@H]2O1                GI50   6.68 µM (inactive)
39  C/C(CC(O)(C(F)(F)F)C(F)(F)F)=N/Nc1ccc([N+](=O)[O-])cc1[N+](=O)[O-]                GI50   2.06 µM (inactive)
40  NNC(=S)N/N=C(\C(=O)Nc1cccc(O)c1)C1C(=O)NC(=S)NC1=O                GI50  > 100 µM (inactive)
41  CCOC(=O)CCC(NC(=O)c1ccc(NCc2ccc3nc(-c4ccccc4)c(Cl)nc3c2)cc1)C(=O)OCC (configuration not stated)                GI50   32.4 µM (inactive)
